IC50 listing for selected compounds.
- target-entity: UniProt:P10635
- Sequence (P10635 whole entry): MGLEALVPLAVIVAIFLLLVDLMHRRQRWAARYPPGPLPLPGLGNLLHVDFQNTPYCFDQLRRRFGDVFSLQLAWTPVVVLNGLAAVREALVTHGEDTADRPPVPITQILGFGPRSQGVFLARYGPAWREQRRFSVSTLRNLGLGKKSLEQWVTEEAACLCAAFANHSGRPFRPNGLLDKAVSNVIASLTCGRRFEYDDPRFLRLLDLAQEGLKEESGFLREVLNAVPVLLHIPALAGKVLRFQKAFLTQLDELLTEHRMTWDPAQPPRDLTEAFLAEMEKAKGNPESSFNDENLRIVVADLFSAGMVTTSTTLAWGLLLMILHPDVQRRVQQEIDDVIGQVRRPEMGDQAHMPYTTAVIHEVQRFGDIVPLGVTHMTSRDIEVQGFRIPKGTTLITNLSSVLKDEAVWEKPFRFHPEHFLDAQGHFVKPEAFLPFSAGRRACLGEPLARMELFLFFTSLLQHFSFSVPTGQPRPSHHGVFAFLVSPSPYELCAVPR
metric: IC50 (µM)

{"smiles-text": "Cc1cc2c(NC(=O)N[C@@H]3CC(CF)(CF)Oc4cc(Cl)ccc43)cccc2cn1", "target-entity": "UniProt:P10635", "metric": "IC50", "measurement-qualifier": "=", "data-value": 4.9}
{"smiles-text": "Cc1cc2c(NC(=O)N[C@@H]3CC(CF)(CF)Oc4ccc(F)cc43)cccc2cn1", "target-entity": "UniProt:P10635", "metric": "IC50", "measurement-qualifier": "=", "data-value": 20}
{"smiles-text": "Cc1cc2c(NC(=O)N[C@@H]3CC(C)(C)Oc4c3ccc(C(F)(F)F)c4F)cccc2cn1", "target-entity": "UniProt:P10635", "metric": "IC50", "measurement-qualifier": ">", "data-value": 20}
{"smiles-text": "CC1(C)C[C@@H](NC(=O)Nc2cccc3cnccc23)c2ccc(OC(F)(F)F)cc2O1", "target-entity": "UniProt:P10635", "metric": "IC50", "measurement-qualifier": "=", "data-value": 0.08}
{"smiles-text": "Cc1cc2c(NC(=O)N[C@@H]3CC(C)(C)Oc4cc(C(F)(F)F)ccc43)cccc2cn1", "target-entity": "UniProt:P10635", "metric": "IC50", "measurement-qualifier": ">", "data-value": 20}
{"smiles-text": "Cc1cc2c(NC(=O)N[C@@H]3CC(C)(C)Oc4c3ccc(F)c4F)cccc2cn1", "target-entity": "UniProt:P10635", "metric": "IC50", "measurement-qualifier": ">", "data-value": 20}
{"smiles-text": "Cc1cc2c(NC(=O)N[C@@H]3CC(CF)(CF)Oc4c(F)cccc43)cccc2cn1", "target-entity": "UniProt:P10635", "metric": "IC50", "measurement-qualifier": "=", "data-value": 11}
{"smiles-text": "Cc1cc2c(NC(=O)N[C@@H]3CC(CF)(CF)Oc4cc(F)ccc43)cccc2cn1", "target-entity": "UniProt:P10635", "metric": "IC50", "measurement-qualifier": "=", "data-value": 19}
{"smiles-text": "Cc1cc2c(NC(=O)N[C@@H]3CC(C)(C)Oc4cc(OC(F)(F)F)ccc43)cccc2cn1", "target-entity": "UniProt:P10635", "metric": "IC50", "measurement-qualifier": "=", "data-value": 6}

----------
List of IC50 tested on Cytochrome P450 3A4 (Homo sapiens).
Sequence (P08684 whole entry): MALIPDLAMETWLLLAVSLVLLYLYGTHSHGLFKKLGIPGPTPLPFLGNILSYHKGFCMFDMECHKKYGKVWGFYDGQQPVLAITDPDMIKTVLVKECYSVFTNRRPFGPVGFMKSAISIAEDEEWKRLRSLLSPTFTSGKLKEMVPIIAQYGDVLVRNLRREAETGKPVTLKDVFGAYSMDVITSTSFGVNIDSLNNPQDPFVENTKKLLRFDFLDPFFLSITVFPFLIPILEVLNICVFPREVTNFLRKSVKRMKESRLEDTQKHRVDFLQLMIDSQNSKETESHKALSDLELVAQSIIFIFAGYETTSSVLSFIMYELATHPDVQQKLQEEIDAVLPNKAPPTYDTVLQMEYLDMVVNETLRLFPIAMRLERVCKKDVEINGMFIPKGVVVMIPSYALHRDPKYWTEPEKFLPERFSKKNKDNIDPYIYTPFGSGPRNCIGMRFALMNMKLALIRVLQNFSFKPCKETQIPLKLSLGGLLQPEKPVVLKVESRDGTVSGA

{"smiles-text": "Cc1cc2c(NC(=O)N[C@@H]3CC(C)(C)Oc4cc(F)ccc43)cccc2cn1", "target-entity": "Cytochrome P450 3A4 (Homo sapiens)", "measurement-qualifier": ">", "IC50, µM": 20}
{"smiles-text": "CCC1(CC)C[C@@H](NC(=O)Nc2cccc3cnccc23)c2cc(F)ccc2O1", "target-entity": "Cytochrome P450 3A4 (Homo sapiens)", "measurement-qualifier": "=", "IC50, µM": 2.8}
{"smiles-text": "CCC1(CC)C[C@@H](NC(=O)Nc2cccc3cnc(C)cc23)c2cc(F)ccc2O1", "target-entity": "Cytochrome P450 3A4 (Homo sapiens)", "measurement-qualifier": ">", "IC50, µM": 20}
{"smiles-text": "Cc1cc2c(NC(=O)N[C@@H]3CC(C)(C)Oc4c3ccc(C(F)(F)F)c4F)cccc2cn1", "target-entity": "Cytochrome P450 3A4 (Homo sapiens)", "measurement-qualifier": "=", "IC50, µM": 18}
{"smiles-text": "Cc1cc2c(NC(=O)N[C@@H]3CC(CF)(CF)Oc4cc(C5CC5)ccc43)cccc2cn1", "target-entity": "Cytochrome P450 3A4 (Homo sapiens)", "measurement-qualifier": ">", "IC50, µM": 20}
{"smiles-text": "CC1(C)C[C@@H](NC(=O)Nc2cccc3cnccc23)c2cc(F)ccc2O1", "target-entity": "Cytochrome P450 3A4 (Homo sapiens)", "measurement-qualifier": "=", "IC50, µM": 1}
{"smiles-text": "Cc1cc2c(NC(=O)N[C@@H]3CC(CF)(CF)Oc4cc(F)ccc43)cccc2cn1", "target-entity": "Cytochrome P450 3A4 (Homo sapiens)", "measurement-qualifier": ">", "IC50, µM": 20}
{"smiles-text": "CC1(C)C[C@@H](NC(=O)Nc2cccc3cnccc23)c2ccc(F)cc2O1", "target-entity": "Cytochrome P450 3A4 (Homo sapiens)", "measurement-qualifier": "=", "IC50, µM": 0.66}

The measured values listed here are drawn from ChEMBL document CHEMBL3352000.
